- measurementTarget: recombinant human ALK5 (TGF-βR1) protein (Homo sapiens, UniProt P36897)
- Construct: purchased Life Technologies PR9075A
- test: Biochemical ALK5 (TGF-βR1) assay to measure pKi (LANCE Ultra ULight kinase assay)
- assayConditions: apparent pKi from pIC50 by Cheng-Prusoff, read-out: ALK5 pKi (converted)
Reported Ki values follow for various compounds

Below are worked cases with known answers.
compound	Ki
Cc1cccc(-c2n[nH]cc2-c2ccc3ncc(-c4cnn(CC(=O)O)c4)cc3n2)n1	< 31.6 pM
Cc1cccc(-c2nc3ccccn3c2-c2ccc3ncc(-c4cnn5c4CNCC5)cc3n2)n1	39.8 to 316 pM

# input Let me know recorded Ki for `CCOC(=O)c1ccnc2ccc(-c3c[nH]nc3-c3cccc(C)n3)nc12` , thanks.
# output 39.8 to 316 pM

# input Provide Ki value for the following compound: `Cc1nc(-c2n[nH]cc2-c2ccc3ncc(-c4[nH]nc5c4CCN5)cc3n2)ccc1F`
# output < 31.6 pM

# input Give the reported value of Ki for this record: Cc1cccc(-c2nnn(Cc3ccccc3)c2-c2ccc3ncc(-c4cnn(C5CCCNC5)c4)cc3c2)n1 (centres unmarked)
# output 39.8 to 316 pM

# input Using the record for `CNc1cnc2ccc(-c3c(-c4cccc(C)n4)n[nH]c3OC)nc2c1` , state its measured Ki.
# output 398 to 3160 pM

# input Supply Ki value. Item: `Cc1nc(-c2n[nH]cc2-c2ccc3ncc(-c4nnc5n4CCNC5)cc3n2)ccc1F`
# output 3980 to 31600 pM

# input Assign Ki to the following record: `CNCCn1ccc(-c2cnc3ccc(-c4c[nH]nc4-c4cccc(C)n4)nc3c2)n1`
# output < 31.6 pM

# input Output Ki of `Cc1cccc(-c2[nH]ncc2-c2ccc3ncc(C(=O)O)cc3c2)n1`
# output 3980 to 31600 pM

# input Please give measured Ki of the following entry: `Cc1cccc(-c2nnn(C)c2-c2ccc3ncc(NCCN4CCN(C(C)C)CC4)cc3c2)n1`
# output 39.8 to 316 pM

# input Please indicate Ki recorded for `Cc1cccc(-c2[nH]cnc2-c2ccc3ncc(-c4cccc(C(=O)O)n4)cc3c2)n1`
# output 39.8 to 316 pM

# input Report Ki for `Cc1cccc(-c2[nH]cnc2-c2ccc3ncc(Nc4cnn(CCC5CCNCC5)c4)cc3c2)n1`
# output 39.8 to 316 pM

# input Answer with reported Ki of `Cc1nc(-c2n[nH]cc2-c2ccc3ncc(-c4cnn5c4NCCC5)cc3n2)ccc1F`
# output < 31.6 pM

# input Indicate the recorded Ki value for this compound: `Cc1nc(-c2n[nH]cc2-c2ccc3ncc(-c4[nH]nc5c4CCNC5)cc3n2)ccc1F`
# output 39.8 to 316 pM

# input Respond only with Ki recorded for Cc1cccc(-c2n[nH]cc2-c2ccc3ncc(C4=CCC(N(C)C)CC4)cc3n2)n1 (centres unmarked)
# output 39.8 to 316 pM

# input Quick one: give measured Ki for `Cc1cccc(-c2[nH]cnc2-c2ccc3ncc(-c4cnn(C5CNC5)c4)cc3c2)n1`
# output < 31.6 pM

---

- measurementTarget: recombinant human ALK5 (TGF-βR1) protein (Homo sapiens)
- Construct: purchased Life Technologies PR9075A
- Sequence (P36897 34-503): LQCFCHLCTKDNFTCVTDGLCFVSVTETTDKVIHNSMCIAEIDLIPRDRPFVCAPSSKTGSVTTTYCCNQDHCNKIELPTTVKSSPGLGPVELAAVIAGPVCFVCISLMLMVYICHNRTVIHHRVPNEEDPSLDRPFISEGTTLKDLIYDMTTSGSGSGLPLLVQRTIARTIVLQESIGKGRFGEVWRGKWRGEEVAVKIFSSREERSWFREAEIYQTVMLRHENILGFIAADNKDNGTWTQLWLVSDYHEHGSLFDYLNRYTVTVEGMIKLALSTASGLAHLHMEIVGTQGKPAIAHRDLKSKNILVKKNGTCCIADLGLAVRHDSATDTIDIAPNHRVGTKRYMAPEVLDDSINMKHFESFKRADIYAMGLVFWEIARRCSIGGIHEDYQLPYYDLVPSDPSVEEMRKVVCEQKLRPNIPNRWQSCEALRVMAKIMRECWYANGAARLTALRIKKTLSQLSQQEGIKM
- test: Biochemical ALK5 (TGF-βR1) assay to measure pKi (LANCE Ultra ULight kinase assay)
- assayConditions: apparent pKi from pIC50 by Cheng-Prusoff, read-out: ALK5 pKi (converted)
Listing: Ki of selected compounds

Recorded results for 3 compounds are shown here.
compound	measurementTarget	Ki
Cc1cccc(-c2[nH]cnc2-c2ccc3ncc(-c4csc(C(=O)OCCN5CC[C@@H](N)C5)c4)cc3c2)n1	recombinant human ALK5 (TGF-βR1) protein (Homo sapiens)	0.0398 to 0.316 nM
Cc1cccc(-c2[nH]cnc2-c2ccc3ncc(-c4cncc(CN5C[C@@H](C)N[C@@H](C)C5)c4)cc3c2)n1	recombinant human ALK5 (TGF-βR1) protein (Homo sapiens)	0.0398 to 0.316 nM
Cc1nc(-c2n[nH]cc2-c2ccc3ncc(-c4cnc5n4CCCN5)cc3n2)ccc1F	recombinant human ALK5 (TGF-βR1) protein (Homo sapiens)	0.0398 to 0.316 nM

# input Dear colleague, please send me the reported Ki for `Cc1cccc(-c2n[nH]cc2-c2ccc3ncc(N4CCN(C(C)C)C(C)(C)C4)cc3n2)n1` when you can.
# output 3.98 to 31.6 nM

---

Parameter Ki: see the listing below.
- measurementTarget: recombinant human ALK5 (TGF-βR1) protein (Homo sapiens, UniProt P36897)
- Construct: purchased Life Technologies PR9075A
- Sequence (P36897 34-503): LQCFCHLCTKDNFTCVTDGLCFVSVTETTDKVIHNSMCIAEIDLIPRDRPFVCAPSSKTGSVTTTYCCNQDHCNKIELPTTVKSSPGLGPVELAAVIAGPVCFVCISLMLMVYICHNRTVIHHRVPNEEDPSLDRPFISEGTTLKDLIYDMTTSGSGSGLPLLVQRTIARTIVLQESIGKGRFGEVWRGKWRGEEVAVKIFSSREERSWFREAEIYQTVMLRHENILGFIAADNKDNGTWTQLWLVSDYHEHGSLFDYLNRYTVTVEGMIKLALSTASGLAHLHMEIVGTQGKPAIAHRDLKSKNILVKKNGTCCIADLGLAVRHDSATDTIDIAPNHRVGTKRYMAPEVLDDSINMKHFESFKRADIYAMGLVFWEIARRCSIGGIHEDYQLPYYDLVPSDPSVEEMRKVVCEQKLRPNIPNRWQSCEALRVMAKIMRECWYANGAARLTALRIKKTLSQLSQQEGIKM
- test: Biochemical ALK5 (TGF-βR1) assay to measure pKi (LANCE Ultra ULight kinase assay)
- assayConditions: apparent pKi from pIC50 by Cheng-Prusoff, read-out: ALK5 pKi (converted)

compound	measuredValue
Cc1nc(-c2n[nH]cc2-c2ccc3ncc(N4CCC(N5CCCC5)CC4)cc3n2)ccc1F [Compound 114]	< 0.0316 nM
Cc1cccc(-c2[nH]ncc2-c2ccc3ncc(C(=O)OCC4CCNCC4)cc3n2)n1 [Compound 211]	0.0398 to 0.316 nM
Cc1cccc(-c2n[nH]cc2-c2ccc3ncc(N4CCNCC4)cc3c2)n1 [Compound 529]	< 0.0316 nM
Cc1cccc(-c2[nH]cnc2-c2ccc3ncc(-c4ccc(C(=O)OCC5CNC5)cc4)cc3c2)n1 [Compound 650]	0.0398 to 0.316 nM
Cc1cccc(-c2n[nH]cc2-c2ccc3ncc(N4CCC(O)C4)cc3n2)n1 (racemic) [Compound 312]	< 0.0316 nM

# input Report Ki for Cc1cccc(-c2[nH]ncc2-c2ccc3ncc(C(=O)OCCN4CCN5CCCC5C4)cc3c2)n1 (stereo not shown) [Compound 1234]
# output 0.0398 to 0.316 nM

# input Item Cc1cccc(-c2[nH]cnc2-c2ccc3ncc(NCCN4CC(N)C4)cc3c2)n1 [Compound 476] : provide Ki
# output 0.0398 to 0.316 nM

# input State, in one line, measured Ki of Cc1cccc(-c2[nH]cnc2-c2ccc3ncc(C4=CCN(C(C)C)C4)cc3n2)n1 [Compound 253]
# output 0.0398 to 0.316 nM

# input Please supply the value of reported Ki for the item Cc1nc(-c2n[nH]cc2-c2ccc3ncc(N4CCCNCC4)cc3n2)ccc1F [Compound 318]
# output 0.0398 to 0.316 nM

# input # return recorded Ki for input Cc1cccc(-c2[nH]cnc2-c2ccc3ncc(-c4csc(C(=O)OC5CNC5)n4)cc3c2)n1 [Compound 1046]
# output 0.0398 to 0.316 nM

# input Input Cc1cccc(-c2n[nH]cc2-c2ccc3ncc(N4CCNC5(CCC5)C4)cc3n2)n1 [Compound 223] , output reported Ki.
# output 0.0398 to 0.316 nM

# input Please look at this compound and report its Ki: Cc1cccc(-c2n[nH]cc2-c2ccc3ncc(C(=O)NCCCN4CCN(C(C)C)CC4)cc3n2)n1 [Compound 55]
# output 0.0398 to 0.316 nM

# input Hello, please tell me recorded Ki for this one: Cc1cccc(-c2[nH]cnc2-c2ccc3ncc(C(=O)OC[C@@H]4CCC[C@H](N)C4)cc3c2)n1 (racemic) [Compound 767]
# output 0.0398 to 0.316 nM

# input Supply measured Ki of COC(=O)c1coc(-c2cnc3ccc(-c4c[nH]nc4-c4cccc(C)n4)nc3c2)n1 [Compound 582] in your reply.
# output < 0.0316 nM
